testTarget: Activin receptor type-1-like (Homo sapiens, UniProt P37023)
Sequence (P37023 whole entry): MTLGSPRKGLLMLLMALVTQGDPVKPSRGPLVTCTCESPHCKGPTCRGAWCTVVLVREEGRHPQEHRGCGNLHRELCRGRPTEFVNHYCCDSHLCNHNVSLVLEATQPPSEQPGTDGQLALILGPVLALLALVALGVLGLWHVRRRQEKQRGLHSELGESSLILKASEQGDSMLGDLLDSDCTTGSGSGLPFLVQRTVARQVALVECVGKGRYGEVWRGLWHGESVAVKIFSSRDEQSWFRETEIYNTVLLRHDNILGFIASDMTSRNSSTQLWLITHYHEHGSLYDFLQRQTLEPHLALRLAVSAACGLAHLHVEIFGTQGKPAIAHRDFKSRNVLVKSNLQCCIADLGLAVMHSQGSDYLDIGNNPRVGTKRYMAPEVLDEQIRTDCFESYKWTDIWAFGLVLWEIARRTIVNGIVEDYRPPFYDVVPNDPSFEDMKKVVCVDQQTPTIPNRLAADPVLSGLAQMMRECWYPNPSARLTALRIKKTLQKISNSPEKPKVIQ
pIC50: −log10 of the molar value.
readoutKind: pIC50

Q: So what pIC50 did Nc1ncnn2ccc(C(=O)Nc3ccc(NC(=O)Nc4cccc(F)c4)cc3)c12 get with Activin receptor type-1-like (Homo sapiens, UniProt P37023)?
A: < 5.00

---

testTarget: Aurora kinase A (Homo sapiens, UniProt O14965)
Sequence (O14965 whole entry): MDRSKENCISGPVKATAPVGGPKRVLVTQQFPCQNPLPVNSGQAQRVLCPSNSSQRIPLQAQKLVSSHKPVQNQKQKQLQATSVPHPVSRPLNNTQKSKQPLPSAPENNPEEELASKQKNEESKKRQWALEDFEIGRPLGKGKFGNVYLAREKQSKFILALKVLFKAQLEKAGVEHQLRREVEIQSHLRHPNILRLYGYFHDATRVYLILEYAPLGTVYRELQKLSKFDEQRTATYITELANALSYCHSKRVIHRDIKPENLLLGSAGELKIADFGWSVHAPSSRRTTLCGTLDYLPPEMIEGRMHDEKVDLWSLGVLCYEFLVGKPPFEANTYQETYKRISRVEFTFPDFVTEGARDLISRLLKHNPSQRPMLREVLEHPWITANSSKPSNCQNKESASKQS
test: Inhibition of Aurora A kinase in presence of 10 uM ATP
readoutKind: IC50

Q: // lookup IC50 for Nc1ncnn2ccc(C(=O)Nc3ccc(NC(=O)Nc4cccc(F)c4)cc3)c12
A: < 3 nM

---

testTarget: UniProtKB Q96GD4
Sequence (Q96GD4 whole entry): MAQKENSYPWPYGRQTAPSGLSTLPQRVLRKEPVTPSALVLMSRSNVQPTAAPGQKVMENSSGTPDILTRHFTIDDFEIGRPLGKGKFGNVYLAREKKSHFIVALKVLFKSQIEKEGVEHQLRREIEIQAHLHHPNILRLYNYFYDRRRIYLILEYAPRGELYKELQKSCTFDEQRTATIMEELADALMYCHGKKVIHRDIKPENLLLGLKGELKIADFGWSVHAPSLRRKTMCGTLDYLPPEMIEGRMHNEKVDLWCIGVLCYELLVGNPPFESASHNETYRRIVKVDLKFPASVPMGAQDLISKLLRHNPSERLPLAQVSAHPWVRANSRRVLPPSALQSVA
test: Inhibition of Aurora B kinase in presence of 10 uM ATP
readoutKind: IC50

Q: // lookup IC50 for Nc1ncnn2ccc(C(=O)Nc3ccc(NC(=O)Nc4cccc(F)c4)cc3)c12
A: < 3 nM

---

Organism: Homo sapiens
test: Selectivity ratio of IC50 for Aurora A kinase to IC50 for Aurora B kinase
For each entry below, report its Ratio IC50 value.
Answers are plain numbers.

* Nc1nsc2cccc(C(=O)Nc3cccc(CNC(=O)Nc4ccc(F)c(F)c4)c3)c12 | 347
* Cn1nc(N)c2c(C(=O)Nc3cccc(CNC(=O)Nc4ccc(C(F)(F)F)cc4)c3)cccc21 | 73
* Nc1noc2cccc(C(=O)Nc3cccc(CNC(=O)Nc4ccccc4)c3)c12 | 210
* Nc1noc2cccc(C(=O)Nc3cccc(CNC(=O)Nc4cccc(F)c4)c3)c12 | 54
* Nc1noc2cccc(C(=O)Nc3cccc(CNC(=O)Nc4ccc(F)c(F)c4)c3)c12 | 696

Q: // lookup Ratio IC50 for Nc1ncnn2ccc(C(=O)Nc3ccc(NC(=O)Nc4ccc(F)cc4)cc3)c12
A: 2.4

---

test: Distribution half life in mouse at 3 mg/kg, iv
Format: ADME, organism-based
Set-up: dose 3 mg/kg, route intravenous
statedConditions: in vivo, read-out: alphat1/2 (converted)
readoutKind: half-life (h)
One number for each entry, in h.

- Nc1noc2cccc(C(=O)Nc3cccc(CNC(=O)Nc4ccc(F)c(F)c4)c3)c12: 1.7

Your task in this section: give half-life for each listed record.
1. Nc1noc2cccc(C(=O)Nc3cccc(CNC(=O)Nc4ccc(C(F)(F)F)cc4)c3)c12
2. Nc1noc2cccc(C(=O)Nc3cccc(CNC(=O)Nc4cccc(F)c4)c3)c12

A:
1.3
0.7

---

testTarget: Aurora kinase A (Homo sapiens, UniProt O14965)
Sequence (O14965 whole entry): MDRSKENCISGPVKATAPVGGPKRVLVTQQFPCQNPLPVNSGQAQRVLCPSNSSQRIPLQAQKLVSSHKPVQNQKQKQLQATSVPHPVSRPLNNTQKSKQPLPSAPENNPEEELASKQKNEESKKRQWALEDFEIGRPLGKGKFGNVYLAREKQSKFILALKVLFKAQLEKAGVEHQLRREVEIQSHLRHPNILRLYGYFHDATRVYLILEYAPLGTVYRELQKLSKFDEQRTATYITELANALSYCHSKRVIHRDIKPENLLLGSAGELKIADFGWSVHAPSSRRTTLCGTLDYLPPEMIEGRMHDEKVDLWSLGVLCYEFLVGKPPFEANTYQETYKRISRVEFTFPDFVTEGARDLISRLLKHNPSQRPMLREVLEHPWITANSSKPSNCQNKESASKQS
test: Inhibition of Aurora A kinase by HTRF analysis in presence of 1 mM ATP
For each entry below, report its IC50 value.
One number for each entry, in µM.

Below, 3 compounds whose answers are already recorded.
• Nc1noc2cccc(C(=O)Nc3cccc(CNC(=O)Nc4cccc(F)c4)c3)c12 = 3.18
• Nc1noc2cccc(C(=O)Nc3cccc(CNC(=O)Nc4ccc(F)c(F)c4)c3)c12 = 4.78
• Cn1nc(N)c2c(C(=O)Nc3cccc(CNC(=O)Nc4ccc(C(F)(F)F)cc4)c3)cccc21 = 12.5

Your task in this section: give IC50 for each listed record.
1. Nc1noc2cccc(C(=O)Nc3cccc(CNC(=O)Nc4ccccc4)c3)c12
2. Nc1nsc2cccc(C(=O)Nc3cccc(CNC(=O)Nc4ccc(F)c(F)c4)c3)c12

A:
[3.79, 12.5]

Q: // lookup IC50 for Nc1ncnn2ccc(C(=O)Nc3ccc(NC(=O)Nc4ccc(F)cc4)cc3)c12
A: 0.088
